Test system: Mus musculus
procedure-details: Antidiabetic activity in C57B6N mouse assessed as decrease in beta-hydroxybutyrate at 30 mg/kg, po
Format: functional
Design: scale not given: the % may be the effect or the level left
For each entry below, report its Activity value.
One number for each entry, in %.

Here are 3 molecules together with their reported answers.
[
  {
    "sample-smiles": "NC(=O)C1(c2ccccc2)CCN(c2ncc(C(O)(C(F)(F)F)C(F)(F)F)s2)CC1",
    "unit-name": "%",
    "result-value": 60
  },
  {
    "sample-smiles": "NC(=O)c1cccc(N2CCN(c3ncc(C(O)(C(F)(F)F)C(F)(F)F)s3)CC2)c1",
    "unit-name": "%",
    "result-value": 78
  },
  {
    "sample-smiles": "CNC(=O)c1cccc(N2CCN(c3ncc(C(O)(C(F)(F)F)C(F)(F)F)s3)CC2)c1",
    "unit-name": "%",
    "result-value": 65
  }
]

Then this molecule:
I am curious: what Activity value has been reported for CS(=O)(=O)NC(=O)C1(c2ccccc2)CCN(c2ncc(C(O)(C(F)(F)F)C(F)(F)F)s2)CC1 ?
60

###

target-entity: Malonyl-CoA decarboxylase, mitochondrial (Mus musculus)
procedure-details: Inhibition of MCD in mouse hepatocytes by whole cell assay
pEC50: −log10 of the molar value.
pEC50 of 6 or higher: Y. Under 6: N.

Does pEC50 meet or surpass 6 for OC(c1cnc(C2CCN(c3ccc(F)cc3)CC2)s1)(C(F)(F)F)C(F)(F)F ?
N

Does the reported pEC50 for CS(=O)(=O)NC(=O)C1(c2ccccc2)CCN(c2ncc(C(O)(C(F)(F)F)C(F)(F)F)s2)CC1 fall at or above the 6 mark?
Y

###

target-entity: Malonyl-CoA decarboxylase, mitochondrial (Mus musculus, UniProt Q99J39)
Sequence (Q99J39 whole entry): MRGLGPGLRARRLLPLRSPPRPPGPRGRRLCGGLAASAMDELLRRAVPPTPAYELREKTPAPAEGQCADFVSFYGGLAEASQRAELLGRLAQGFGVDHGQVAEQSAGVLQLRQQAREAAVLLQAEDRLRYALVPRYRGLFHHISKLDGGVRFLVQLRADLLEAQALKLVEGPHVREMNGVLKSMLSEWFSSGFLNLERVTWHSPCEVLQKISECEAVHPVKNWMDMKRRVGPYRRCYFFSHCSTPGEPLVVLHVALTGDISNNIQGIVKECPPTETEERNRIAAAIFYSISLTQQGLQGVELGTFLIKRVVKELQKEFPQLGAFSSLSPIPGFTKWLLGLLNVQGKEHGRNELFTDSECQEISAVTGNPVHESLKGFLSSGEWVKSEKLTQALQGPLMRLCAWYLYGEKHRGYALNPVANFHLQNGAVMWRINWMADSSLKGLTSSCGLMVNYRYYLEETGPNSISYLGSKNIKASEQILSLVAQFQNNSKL
procedure-details: Inhibition of MCD in mouse hepatocytes by whole cell assay
parameter-measured: EC50 (nM)
One number for each entry, in nM.

// worked examples, EC50 included
[
  {
    "sample-smiles": "NC(=O)C1(c2ccccc2)CCN(c2ncc(C(O)(C(F)(F)F)C(F)(F)F)s2)CC1",
    "EC50, nM": 1100
  },
  {
    "sample-smiles": "CNC(=O)c1cccc(N2CCN(c3ncc(C(O)(C(F)(F)F)C(F)(F)F)s3)CC2)c1",
    "EC50, nM": 630
  },
  {
    "sample-smiles": "NC(=O)c1cccc(N2CCN(c3ncc(C(O)(C(F)(F)F)C(F)(F)F)s3)CC2)c1",
    "EC50, nM": 1400
  },
  {
    "sample-smiles": "NC(=O)c1cccc(C2CCN(c3ncc(C(O)(C(F)(F)F)C(F)(F)F)s3)CC2)c1",
    "EC50, nM": 950
  },
  {
    "sample-smiles": "NC(=O)c1cccc(N2CCC(c3ncc(C(O)(C(F)(F)F)C(F)(F)F)s3)CC2)c1",
    "EC50, nM": 2000
  },
  {
    "sample-smiles": "CNC(=O)C1(c2ccccc2)CCN(c2ncc(C(O)(C(F)(F)F)C(F)(F)F)s2)CC1",
    "EC50, nM": 640
  },
  {
    "sample-smiles": "O=C(O)c1cccc(C2CCN(c3ncc(C(O)(C(F)(F)F)C(F)(F)F)s3)CC2)c1",
    "EC50, nM": 230
  }
]

Could you now consider this next compound?
So what's the measured EC50 for this one? NC(=O)C1(c2cccc(C(=O)O)c2)CCN(c2ncc(C(O)(C(F)(F)F)C(F)(F)F)s2)CC1
150
